Provide the reported IC50 of each item.
- tested.target: Arf6 (Homo sapiens (Human))
- Sequence (P62330 14-175): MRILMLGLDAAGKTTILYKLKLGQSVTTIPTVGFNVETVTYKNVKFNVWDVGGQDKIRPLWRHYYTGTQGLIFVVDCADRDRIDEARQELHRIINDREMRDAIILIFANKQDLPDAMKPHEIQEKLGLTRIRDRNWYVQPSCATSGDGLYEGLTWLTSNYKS
- assay.protocol: Fluorometric assay for Arf6 nucleotide exchange catalyzed by ARNO Sec7 domain (GTP-BODIPY FL)
- Type: biochemical
- condition.info: 20 nM Arf6 assay; read-out: IC50 (μM) 20 nM Arf6
A complete answer gives the number and then names the unit.

Check out these entries, answers already filled in.
compound: O=c1cc(-c2ccc([N+](=O)[O-])cc2)[nH]c2c(-c3ccc(Cl)c(C(F)(F)F)c3)c(C(F)(F)F)nn12 [Compound 8]
IC50: 0.67 µM
//
compound: O=c1cc(-c2ccc([N+](=O)[O-])cc2)[nH]c2c(-c3ccc(Cl)cc3)c(Cc3cccnc3)nn12 [Compound 52]
IC50: 2.8 µM
//
compound: O=C1NC(=S)S/C1=C/c1ccc(N2N=C(c3ccccc3)CC2c2ccccc2)cc1 (stereo not drawn) [Compound 121]
IC50: 3.7 µM

For each of the items listed, what is its IC50?
1. CC(C)(C)c1nn2c(=O)cc(-c3cccc(C(N)=O)c3)[nH]c2c1-c1ccc(Cl)cc1 [Compound 85]
2. O=c1cc(-c2ccc([N+](=O)[O-])cc2)[nH]c2c(-c3ccc(Cl)c(Cl)c3)c(-c3ccccc3)nn12 [Compound 5]
3. Cn1c(N)c(C(=O)COC(=O)c2ccccc2SCc2ccc(C#N)cc2)c(=O)[nH]c1=O [Compound 134]
4. O=c1cc(-c2cccc(Br)c2)[nH]c2c(-c3ccc(Cl)cc3)c(C(F)(F)F)nn12 [Compound 34]
5. O=c1cc(-c2ccccc2Br)[nH]c2c(-c3ccc(Cl)cc3)c(C(F)(F)F)nn12 [Compound 62]
6. O=C(COC(=O)c1cc2ccccc2[nH]1)NCCSc1ccc(Cl)cc1 [Compound 139]
7. O=c1cc(-c2cccc(-c3cccnc3)c2)[nH]c2c(-c3ccc(Cl)c(Cl)c3)c(C(F)(F)F)nn12 [Compound 1]
8. O=c1cc(-c2ccc([N+](=O)[O-])cc2)[nH]c2c(-c3ccc(Cl)cc3)c(C3CC3)nn12 [Compound 104]

1. 6.6 µM
2. 0.58 µM
3. 13 µM
4. 1.6 µM
5. 3.3 µM
6. 19 µM
7. 0.25 µM
8. 14 µM

List the reported IC50 of each compound below.
1. O=c1cc(-c2ccc([N+](=O)[O-])cc2)[nH]c2c(-c3cccc4ccccc34)c(Cc3ccccc3)nn12 [Compound 20]
2. Cc1nn2c(=O)cc(-c3ccc([N+](=O)[O-])cc3)[nH]c2c1-c1ccc(Cl)cc1Cl [Compound 36]
3. Cn1cc(/C=C(\CC(=O)O)C2Nc3ccccc3S2)c(-c2ccc3c(c2)OCCCO3)n1 (stereo not drawn) [Compound 128]
4. CC(c1ccccc1)c1cc(=O)n2nc(C(F)(F)F)c(-c3ccc(Cl)cc3)c2[nH]1 (stereo not drawn) [Compound 45]

1.1 µM
1.7 µM
8.4 µM
2.3 µM

====

- tested.target: Arf6 (Homo sapiens (Human))
- assay.protocol: Fluorometric assay for Arf6 nucleotide exchange catalyzed by ARNO Sec7 domain (GTP-BODIPY FL)
- Assay type: biochemical
- condition.info: 20 nM Arf6 assay; read-out: IC50 (μM) 20 nM Arf6
- Text: FIGS. 1A-1D: Fluorometric high throughput assay for Arf6 nucleotide exchange catalyzed by ARNO Sec7 domain. FIG. 1A: Principle of the assay. FIG. 1B: SDS-PAGE analysis of N-terminally His-tagged Arf6(14-175) and ARNO(50-255) purified from the E. coli cultures by immobilized metal affinity chromatography. […] Fluorescence intensities were monitored using a Synergy 4 plate reader (BioTek) at the excitation and emission wavelengths of 490 nm and 520 nm, respectively. […]
I'd be grateful if you could share measured IC50 for these entries.
Numbers only, in µM.

Hey, can you go through the list below and give me IC50 for every item?
1. Cc1c(Cc2ccccc2)nn2c(=O)cc(-c3ccc([N+](=O)[O-])cc3)[nH]c12
2. CCC(C)(C)C1CCc2c(sc3c2C(=O)NC(c2cc(OC)c(O)c([N+](=O)[O-])c2)N3)C1 (stereo not shown)

11
0.56

Provide IC50 values for the following items, in order.
1. CCC(=O)Nc1ccc(-c2cc(=O)n3nc(C(F)(F)F)c(-c4ccc(Cl)cc4)c3[nH]2)cc1
2. CC(c1ccccc1)c1nn2c(=O)cc(-c3ccc([N+](=O)[O-])cc3)[nH]c2c1-c1ccc(Cl)cc1 (stereo not shown)

1: 1; 2: 1.4
